Assay: folding stability dG unfold from trypsin proteolysis; higher = more stable
Each entry below carries its recorded folding stability dG unfold.
METRIC: folding stability dG unfold (kcal/mol)

{"columns": ["SEQUENCE RECORD", "OUTPUT UNIT", "REPORTED VALUE"],
 "data": [
  ["SAGGSAGGSAGPITITDIPSEEEAAALIAARPGVEVERKPVTLSEEERWEVTLTLPGEAASAGGSAGGSAGG [r17_542_JUSTAS]", "kcal/mol", 0.157],
  ["SAGGSMVKEIEIPVPEDWTPEDAVEAAREYLEANPELENVIVRFTLPDGTPLVVEIKPGGKIVKVTPESAGG [r13_690_JUSTAS]", "kcal/mol", 1.71],
  ["SAGGSAGGSMVKVEVTTTYDPSSNKTTVTTTTTLTEGGGTVLGTKTTTTTTTISPTTPVTSVTSAGGSAGGS [r12_254_JUSTAS]", "kcal/mol", 0.604],
  ["SAGGSAKKKKKKKVKKVITIPVGGYKIEITYNKKTKKITVKVYKKNKNGKLLSEEEVKKLVKELLSSAGGSA [r15_735_TrROS_Hall]", "kcal/mol", 1.73],
  ["SAAKKLKELGYKVKKVEVLKPFTLPDGTTLTEYRITVELPTKTVTVDIIAPGESPEIAEEAALAAITASSAG [r14_726_TrMRF]", "kcal/mol", 1.25],
  ["SAGGMLIIRIEIEIEKNGKKEKKEILIVAKTEEEAKKAAEKIAKEKGLKIKKIEILPFKSLEELKKALSAGG [r13_949_TrROS_Hall]", "kcal/mol", 2.12],
  ["SAGGSAGGMKTITIELPPGPVRIRVRLAATGEEVTVEVDAETPTVTITIPEEGAEIVEIEIEPVSAGGSAGG [r6_977_TrROS_Hall]", "kcal/mol", 2.06]
]}

====

Assay: folding stability dG unfold from chymotrypsin proteolysis; higher = more stable
Please enter Satisfied where folding stability dG unfold is greater than or equal to 0.8 kcal/mol, and Not satisfied where it is lower.

{"columns": ["SEQUENCE RECORD", "ASSIGNED CLASS"],
 "data": [
  ["SAGGKTKEIELEILFEPVKVKKKKKNKNGKEEEVEEKEFKPVLVRITLKIENGKITEIKIEVEKLDDLSAGG [r13_935_TrROS_Hall]", "Satisfied"],
  ["STRTVPIPIRWDNGRLSPDDIRNAIKKALPPGENVKITEETIQNFWQEWAGKNGKPMTPEDFPIRIEVKKSA [r9_197_TrROS]", "Not satisfied"],
  ["SAGGSLEDFELAGTFPATSEGETLLVTVWKSKEPGKYVVSAYYPSTGIPEVKVVNPEDIEEFFKNLYSAGGS [r8_469_TrMRF]", "Satisfied"],
  ["SAGVRYLVATGEDGATVVVPVPAETEEEAEEKAEELARELAERFPGARFVPVPVEEPELPPVEALPGVESAG [r5_950_TrMRF]", "Not satisfied"],
  ["SAGIYIPMDMTIDELVDILQKFGIRSVTTERMPEPGMYKATLKFPDLTIEIWYHPNWMHIEIVPPGEPISAG [r5_899_TrROS]", "Satisfied"],
  ["SANDAMRKMMENMSPEDMMEMVRPPVPPPPVVTIRVPIEDLPKFLQWLSEEFGVEIEREDGYLYITVTASAG [r14_7_TrROS]", "Satisfied"]
]}
